- System: WA09 hES cells
- Assay setup: test set; teratogenicity potential scored against therapeutic Cmax

Compound: CCOC(=O)N1CCC(=C2c3ccc(Cl)cc3CCc3cccnc32)CC1 [Loratadine]
Viability Prediction: NON

Compound: Nc1nc(N)c2nc(CNc3ccc(C(=O)N[C@@H](CCC(=O)O)C(=O)O)cc3)cnc2n1 [Aminopterin]
Viability Prediction: TER

Compound: S=P(N1CC1)(N1CC1)N1CC1 [ThioTEPA]
Viability Prediction: TER

Compound: Nc1nc2c(ncn2COCCO)c(=O)[nH]1 [Acycloguanosine]
Viability Prediction: NON

###

- System: hES cells
- Experimental protocol: ADMA/cystine ratio simplified predictive model in hES cell spent media
- Type: cell-based, human
- Assay setup: single dose per treatment; ratios less than 0.9 indicate teratogenicity
Test readout: Model Predictions ADMA/Cystine

The examples below pair each entry with its known result.
Molecule: CC1(C)S[C@@H]2[C@H](NC(=O)[C@H](N)c3ccc(O)cc3)C(=O)N2[C@H]1C(=O)O
Observed measurement: Non
--
Molecule: NC(=O)N1c2ccccc2C=Cc2ccccc21 [Carbamazepine]
Observed measurement: Ter
--
Molecule: CN(C)CCOC(c1ccccc1)c1ccccc1 [Diphenhydramine]
Observed measurement: Non
--
Molecule: CCN(CC)CCNC(=O)c1cc(Cl)c(N)cc1OC [Metoclopramide]
Observed measurement: Non
--
Molecule: CC1=C(/C=C/C(C)=C/C=C/C(C)=C/C(=O)O)C(C)(C)CCC1 [All-trans Retinoic Acid]
Observed measurement: Ter
--
Molecule: C=CC=O
Observed measurement: Ter

For the molecule "CCCC(CCC)C(=O)O" , report Model Predictions ADMA/Cystine.
Ter

Could you please provide reported Model Predictions ADMA/Cystine for "O=C1NS(=O)(=O)c2ccccc21" ? Thanks!
Non

Note Model Predictions ADMA/Cystine for the molecule shown: "Nc1nc2ncc(CNc3ccc(C(=O)N[C@@H](CCC(=O)O)C(=O)O)cc3)nc2c(=O)[nH]1"
Non

State its Model Predictions ADMA/Cystine for this molecule: "Cc1ncc(C[n+]2csc(CCO)c2C)c(N)n1"
Non

Respond only with Model Predictions ADMA/Cystine recorded for CC(=O)CC(c1ccccc1)c1c(O)c2ccccc2oc1=O (centres unmarked)
Ter
